Procedure details: qHTS assay to identify small molecule agonists of H2AX (AID 1224845)
Recorded conditions: CHO-K1 phospho-H2AX Ser139 HTRF, 3 h; series mostly up to 154 µM
Inconclusive results are not listed. Active and inactive are the calls of the source. The call rests on the fitted dose curve; in most records, active means well fitted activation curve with a large enough effect in the signal ratio in the repeat runs (not every such curve was filed as active); inconclusive means weak or mixed curves; inactive means flat fitted curve, though single readings scatter; the % refers to the signal ratio.
Labels: active, inactive

                                    compound  class_name
 0                     Cc1ccc(S(=O)(=O)O)cc1    inactive
 1                      CCOc1ccc(NC(C)=O)cc1    inactive
 2                            O=C(O)c1ccccc1    inactive
 3  CCCCC1(COC(=O)CCC(=O)O)C(=O)N(c2ccccc2)N(c2ccccc2)C1=O    inactive
 4                CS(=O)(=O)OCCCCOS(C)(=O)=O    inactive
 5                                 CCOC(N)=O    inactive
 6                               NS(=O)(=O)O    inactive
 7  CC1(C)O[C@@H]2C[C@H]3[C@@H]4CCC5=CC(=O)C=C[C@]5(C)[C@@]4(F)[C@@H](O)C[C@]3(C)[C@]2(C(=O)CO)O1    inactive
 8  COc1ccc2c(c1)c(CC(=O)O)c(C)n2C(=O)c1ccc(Cl)cc1    inactive
 9                   O=C1NS(=O)(=O)c2ccccc21    inactive
10         O=C1NC(=O)C(c2ccccc2)(c2ccccc2)N1    inactive
11                                 NC1CCCCC1    inactive
12                            NC(=O)c1cccnc1    inactive
13  CN(C)CCOC(C)(c1ccccc1)c1ccccn1 (stereo not given)    inactive
14  CC/C(=C(\c1ccccc1)c1ccc(OCCN(C)C)cc1)c1ccccc1      active
15                      CN1CCC[C@H]1c1cccnc1    inactive
16                   CCN(CC)C(=O)c1cccc(C)c1    inactive
17  CCN(Cc1c(F)cccc1Cl)c1c([N+](=O)[O-])cc(C(F)(F)F)cc1[N+](=O)[O-]    inactive
18                   Cc1ncc([N+](=O)[O-])n1C    inactive
19                              NC(CO)(CO)CO    inactive
20                   O=c1[nH]cc(F)c(=O)[nH]1    inactive
21      O=C(O)CC(O)C(=O)O (stereo not given)    inactive
22  C1CCC(C(CC2CCCCN2)C2CCCCC2)CC1 (stereo not given)      active
23               CN(C)CCOC(c1ccccc1)c1ccccc1    inactive
24                       C=CCc1ccc(O)c(OC)c1    inactive
